The values you see were collected from patent US20040043959A1.

- Measured Target: Human MTAP (Homo sapiens, UniProt Q13126)
- Construct: six-histidine tag (His6) (N); made in house; host or cells: E. coli BL21 DE3
- Assay Procedure: MTAP substrate assay, coupled spectrophotometric (adenine, xanthine oxidase)
- Type: biochemical
- Test Context: 10 min; compound 50 uM, 2 nM MTAP, relative to MTA at 50 uM; read-out: MT-A—50: initial velocity as a percentage of the initial velocity with MTA as substrate
Observation Type: activity at 50 µM

Some solved cases for reference:
1) Nc1ncnc2c1ncn2[C@@H]1O[C@H](CSc2ncc(C(F)(F)F)cc2Cl)[C@@H](O)[C@H]1O 7%
2) Nc1ncnc2c1ncn2[C@@H]1O[C@H](CSc2ccc(Cl)c(Cl)c2)[C@@H](O)[C@H]1O 10.5%
3) CC(C)c1ccccc1SC[C@H]1O[C@@H](n2cnc3c(N)ncnc32)[C@H](O)[C@@H]1O 2%

Now take the following compound into account.
What measured activity at 50 µM goes with Nc1ncnc2c1ncn2[C@@H]1O[C@H](CSCCCCCCO)[C@@H](O)[C@H]1O ? 6%

###

- Measured Target: Human MTAP (Homo sapiens, UniProt Q13126)
- Construct: six-histidine tag (His6) (N); made in house; host or cells: E. coli BL21 DE3
- Assay Procedure: MTAP substrate assay, coupled spectrophotometric (adenine, xanthine oxidase)
- Format: biochemical
- Test Context: compound 10 uM, 2 nM MTAP, relative to MTA at 10 uM
- Procedure: An enzymatic assay to determine the activity of MTAP against a given substrate was performed. Human MTAP containing an N-terminal six-histidine tag was expressed in E. coli BL21 DE3 cells. The protein was purified to homogeneity by Ni2+ affinity chromatography. Enzymatic activity was measured using a coupled spectrophotometric assay designed to monitor the reaction product adenine (Savarese, T. M., Crabtree, G. W., and Parks, R. E. Jr., (1980) Biochem. Pharmacol. 30, 189-199). […]
Lab note: anything with MT-A—10: initial velocity as a percentage of the initial velocity with MTA as substrate at or over 7% counts as fulfilled; the rest go in not fulfilled.

# count of solved cases: 6
1. Nc1ncnc2c1ncn2[C@@H]1O[C@H](CSc2nc3cccnc3s2)[C@@H](O)[C@H]1O fulfilled
2. Nc1ncnc2c1ncn2[C@@H]1O[C@H](CSc2ccccc2[N+](=O)[O-])[C@@H](O)[C@H]1O not fulfilled
3. CC(C)(C)c1cc(O)nc(SC[C@H]2O[C@@H](n3cnc4c(N)ncnc43)[C@H](O)[C@@H]2O)n1 fulfilled
4. CNC(=O)CSC[C@H]1O[C@@H](n2cnc3c(N)ncnc32)[C@H](O)[C@@H]1O not fulfilled
5. Nc1ncnc2c1ncn2[C@@H]1O[C@H](CSc2ccccc2Br)[C@@H](O)[C@H]1O not fulfilled
6. Nc1ncnc2c1ncn2[C@@H]1O[C@H](CSc2ccc(F)cc2)[C@@H](O)[C@H]1O fulfilled

Please find the next compound below.
Is it the case that Nc1ncnc2c1ncn2[C@@H]1O[C@H](CSc2nccn2Cc2ccccc2)[C@@H](O)[C@H]1O has MT-A—10: initial velocity as a percentage of the initial velocity with MTA as substrate reaching or exceeding 7%? fulfilled

###

- Measured Target: Human MTAP (Homo sapiens, UniProt Q13126)
- Construct: six-histidine tag (His6) (N); made in house; host or cells: E. coli BL21 DE3
- Assay Procedure: MTAP substrate assay, coupled spectrophotometric (adenine, xanthine oxidase)
- Assay type: biochemical
- Test Context: compound 10 uM, 2 nM MTAP, relative to MTA at 10 uM
Quick reference: MT-A—10: initial velocity as a percentage of the initial velocity with MTA as substrate of the listed items.
Write it as a number; the unit % goes unstated.

These recorded examples may help you get a feel for the data.
1) Nc1ncnc2c1ncn2[C@@H]1O[C@H](CSc2ccc(Cl)cc2Cl)[C@@H](O)[C@H]1O −2
2) Cn1c(CO)cnc1SC[C@H]1O[C@@H](n2cnc3c(N)ncnc32)[C@H](O)[C@@H]1O 5
3) CCCCCCCSC[C@H]1O[C@@H](n2cnc3c(N)ncnc32)[C@H](O)[C@@H]1O 101
4) NC(=O)CSC[C@H]1O[C@@H](n2cnc3c(N)ncnc32)[C@H](O)[C@@H]1O 7.5
5) Cc1ccc(SC[C@H]2O[C@@H](n3cnc4c(N)ncnc43)[C@H](O)[C@@H]2O)c(C)c1 35.5

# query: MT-A—10: initial velocity as a percentage of the initial velocity with MTA as substrate of entry Nc1ncnc2c1ncn2[C@@H]1O[C@H](CSc2ccccc2F)[C@@H](O)[C@H]1O 25

Recorded MT-A—10: initial velocity as a percentage of the initial velocity with MTA as substrate of Nc1ncnc2c1ncn2[C@@H]1O[C@H](CSc2ncc(C(F)(F)F)cc2Cl)[C@@H](O)[C@H]1O , please. 7

// MT-A—10: initial velocity as a percentage of the initial velocity with MTA as substrate lookup, key: Nc1ncnc2c1ncn2[C@@H]1O[C@H](CSc2nc3ccc(Cl)cc3o2)[C@@H](O)[C@H]1O 10

###

- Measured Target: Human MTAP (Homo sapiens, UniProt Q13126)
- Construct: six-histidine tag (His6) (N); made in house; host or cells: E. coli BL21 DE3
- Assay Procedure: MTAP substrate assay, coupled spectrophotometric (adenine, xanthine oxidase)
- Assay type: biochemical
- Test Context: 10 min; compound 50 uM, 2 nM MTAP, relative to MTA at 50 uM; read-out: MT-A—50: initial velocity as a percentage of the initial velocity with MTA as substrate
The following molecules are shown together with reported activity at 50 µM values.
Reply numerically in %, unit not repeated.

Example molecules with recorded activity at 50 µM:
Molecule	activity at 50 µM / %
Cc1ccc(C(C)(C)C)cc1SC[C@H]1O[C@@H](n2cnc3c(N)ncnc32)[C@H](O)[C@@H]1O [2(G)(34)]	3
Nc1ncnc2c1ncn2[C@@H]1O[C@H](CSCCc2cnccn2)[C@@H](O)[C@H]1O [2(G)(61)]	20
CCC(C)CSC[C@H]1O[C@@H](n2cnc3c(N)ncnc32)[C@H](O)[C@@H]1O (stereo partly drawn) [2(G)(71)]	73
Nc1ncnc2c1ncn2[C@@H]1O[C@H](CSc2cccs2)[C@@H](O)[C@H]1O [2(G)(87)]	33
CC(O)CSC[C@H]1O[C@@H](n2cnc3c(N)ncnc32)[C@H](O)[C@@H]1O (stereo partly drawn) [2(G)(141)]	27

Record request: activity at 50 µM value, item COc1cccc(-c2nnc(SC[C@H]3O[C@@H](n4cnc5c(N)ncnc54)[C@H](O)[C@@H]3O)n2C)c1 [2(G)(111)] 4

Requested read-out: activity at 50 µM. Entry: Nc1ncnc2c1ncn2[C@@H]1O[C@H](CSc2nccc(-c3ccco3)n2)[C@@H](O)[C@H]1O [2(G)(112)] 10

Consider the molecule shown here: Cc1cc(C)c(CSC[C@H]2O[C@@H](n3cnc4c(N)ncnc43)[C@H](O)[C@@H]2O)c(C)c1 [2(G)(137)] What is its recorded activity at 50 µM? 2

Returns the measured activity at 50 µM for the input molecule. Input: Cn1nnnc1SC[C@H]1O[C@@H](n2cnc3c(N)ncnc32)[C@H](O)[C@@H]1O [2(G)(6)] 47

###

- Measured Target: Human MTAP (Homo sapiens)
- Construct: six-histidine tag (His6) (N); made in house; host or cells: E. coli BL21 DE3
- Sequence (Q13126 1-283): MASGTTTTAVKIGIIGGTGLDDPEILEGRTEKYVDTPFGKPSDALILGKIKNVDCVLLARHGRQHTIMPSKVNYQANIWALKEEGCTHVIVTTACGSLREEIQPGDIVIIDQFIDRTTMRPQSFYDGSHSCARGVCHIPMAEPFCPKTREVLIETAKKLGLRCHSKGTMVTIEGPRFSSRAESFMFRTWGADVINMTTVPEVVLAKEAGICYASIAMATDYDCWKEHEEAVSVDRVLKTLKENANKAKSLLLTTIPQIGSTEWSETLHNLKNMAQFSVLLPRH
- Assay Procedure: MTAP substrate assay, coupled spectrophotometric (adenine, xanthine oxidase)
- Assay type: biochemical
- Test Context: 10 min; compound 50 uM, 2 nM MTAP, relative to MTA at 50 uM; read-out: MT-A—50: initial velocity as a percentage of the initial velocity with MTA as substrate
Measured activity at 50 µM by item
Numeric only. Scale: %

Record excerpt, results attached:
Compound	Observation Type	Test Value
Nc1ncnc2c1ncn2[C@@H]1O[C@H](CSc2ccccc2C(F)(F)F)[C@@H](O)[C@H]1O	activity at 50 µM	1
Nc1ncnc2c1ncn2[C@@H]1O[C@H](CSc2c(Cl)cccc2Cl)[C@@H](O)[C@H]1O	activity at 50 µM	3
Nc1ncnc2c1ncn2[C@@H]1O[C@H](CSCc2ccccc2Cl)[C@@H](O)[C@H]1O	activity at 50 µM	21
Cc1ccc(C)c(SC[C@H]2O[C@@H](n3cnc4c(N)ncnc43)[C@H](O)[C@@H]2O)c1	activity at 50 µM	4
CCCCCCCSC[C@H]1O[C@@H](n2cnc3c(N)ncnc32)[C@H](O)[C@@H]1O	activity at 50 µM	62.5

# activity at 50 µM lookup, item CCC(C)SC[C@H]1O[C@@H](n2cnc3c(N)ncnc32)[C@H](O)[C@@H]1O (some centres unmarked) 45

Query: activity at 50 µM; subject: COC(=O)CSC[C@H]1O[C@@H](n2cnc3c(N)ncnc32)[C@H](O)[C@@H]1O 44

Quick one: activity at 50 µM of Nc1ncnc2c1ncn2[C@@H]1O[C@H](CSc2cccc(F)c2)[C@@H](O)[C@H]1O ? 25.5
